system: NALM-6 (B-Lymphoblastic Leukemia); assay: Bliss excess, mean over the matrix (fraction); higher = more synergy;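 note: after 72 h of two-drug dosing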
Catalogue of Bliss excess readings, one per entry.

Molecule	Bliss excess
CCN(CCO)CCCOc1ccc2c(Nc3cc(CC(=O)Nc4cccc(F)c4)[nH]n3)ncnc2c1 [AZD2811] + O=C(c1cc(Cc2n[nH]c(=O)c3ccccc23)ccc1F)N1CCN(C(=O)C2CC2)CC1 [Olaparib] (first compound max 1 µM, 7x7, partner max 10 µM)	-0.0086
CC1(C)CCC(CN2CCN(c3ccc(C(=O)NS(=O)(=O)c4ccc(NCC5CCOCC5)c([N+](=O)[O-])c4)c(Oc4cnc5[nH]ccc5c4)c3)CC2)=C(c2ccc(Cl)cc2)C1 [Venetoclax] + CCN(CCO)CCCOc1ccc2c(Nc3cc(CC(=O)Nc4cccc(F)c4)[nH]n3)ncnc2c1 [AZD2811] (first compound max 1 µM, 7x7, partner max 1 µM)	0.0968
